Below: a set of entries, each annotated with reported melting point.

Previously resolved entries follow.
CN1CCc2cc(C#CCO)cc3c(=O)c(C(=O)NCc4ccc(Cl)cc4)cn1c23 [Example 16] :: 165 to 167 °C
CN1COc2cc(C#CCO)cc3c(=O)c(C(=O)NCc4ccc(Cl)cc4)cn1c23 [Example 15] :: 231 to 233 °C
O=C(NCc1ccc(Cl)cc1)c1cn2c3c(cc(CN4CCOCC4)cc3c1=O)N=C(NCc1ccccc1)C2 [Example 10] :: 235 to 240 °C
CC1(C)Cc2cc(C#CCO)cc3c(=O)c(C(=O)NCc4ccc(Cl)cc4)cn1c23 [Example 6] :: 228 °C (dec.)
O=C(NCc1ccc(Cl)cc1)c1cc2c3c(cc(CN4CCOCC4)cn3c1=O)CCC2 [Example 7] :: 200 to 201 °C
O=C(NCc1ccc(Cl)cc1)c1cn2c3c(cc(C#CCO)cc3c1=O)CC2CO (stereo not shown) [Example 5] :: 224 to 225 °C

Proceed to the following item.
Retrieve melting point measured for O=C(NCc1ccc(Cl)cc1)c1cn2c3c(cc(CN4CCOCC4)cc3c1=O)OCCC2 [Example 1] and print it. 195 to 197 °C
